These entries and their values trace back to the array DNA melting data of Ke et al. (doi:10.1101/2024.01.08.574731).

Recorded Tm values for a group of sequences are listed next.
assay.method.text: melting temperature; fluorescence melt of hairpins on a sequencing array, two-state fit, raised by 9.35 °C to match UV melts
stated.conditions: sodium 0.088 M

{"sequence.string": "GCTGACGAAAGTCTTAGC ((((((....)))..)))", "Tm": "39.8 °C"}
{"sequence.string": "GCAATCACGAAAGTGTGC (((..(((....))))))", "Tm": "39.9 °C"}
{"sequence.string": "GGAAGGGGAAACCCTCCC ((.((((....)))).))", "Tm": "41.1 °C"}
{"sequence.string": "GCCCGGCGAAAGCAGTGC ((.(.((....)).).))", "Tm": "40.5 °C"}
